# System Under Test: Metabotropic glutamate receptor 5 (Rattus norvegicus, UniProt P31424)
# Sequence (P31424 whole entry): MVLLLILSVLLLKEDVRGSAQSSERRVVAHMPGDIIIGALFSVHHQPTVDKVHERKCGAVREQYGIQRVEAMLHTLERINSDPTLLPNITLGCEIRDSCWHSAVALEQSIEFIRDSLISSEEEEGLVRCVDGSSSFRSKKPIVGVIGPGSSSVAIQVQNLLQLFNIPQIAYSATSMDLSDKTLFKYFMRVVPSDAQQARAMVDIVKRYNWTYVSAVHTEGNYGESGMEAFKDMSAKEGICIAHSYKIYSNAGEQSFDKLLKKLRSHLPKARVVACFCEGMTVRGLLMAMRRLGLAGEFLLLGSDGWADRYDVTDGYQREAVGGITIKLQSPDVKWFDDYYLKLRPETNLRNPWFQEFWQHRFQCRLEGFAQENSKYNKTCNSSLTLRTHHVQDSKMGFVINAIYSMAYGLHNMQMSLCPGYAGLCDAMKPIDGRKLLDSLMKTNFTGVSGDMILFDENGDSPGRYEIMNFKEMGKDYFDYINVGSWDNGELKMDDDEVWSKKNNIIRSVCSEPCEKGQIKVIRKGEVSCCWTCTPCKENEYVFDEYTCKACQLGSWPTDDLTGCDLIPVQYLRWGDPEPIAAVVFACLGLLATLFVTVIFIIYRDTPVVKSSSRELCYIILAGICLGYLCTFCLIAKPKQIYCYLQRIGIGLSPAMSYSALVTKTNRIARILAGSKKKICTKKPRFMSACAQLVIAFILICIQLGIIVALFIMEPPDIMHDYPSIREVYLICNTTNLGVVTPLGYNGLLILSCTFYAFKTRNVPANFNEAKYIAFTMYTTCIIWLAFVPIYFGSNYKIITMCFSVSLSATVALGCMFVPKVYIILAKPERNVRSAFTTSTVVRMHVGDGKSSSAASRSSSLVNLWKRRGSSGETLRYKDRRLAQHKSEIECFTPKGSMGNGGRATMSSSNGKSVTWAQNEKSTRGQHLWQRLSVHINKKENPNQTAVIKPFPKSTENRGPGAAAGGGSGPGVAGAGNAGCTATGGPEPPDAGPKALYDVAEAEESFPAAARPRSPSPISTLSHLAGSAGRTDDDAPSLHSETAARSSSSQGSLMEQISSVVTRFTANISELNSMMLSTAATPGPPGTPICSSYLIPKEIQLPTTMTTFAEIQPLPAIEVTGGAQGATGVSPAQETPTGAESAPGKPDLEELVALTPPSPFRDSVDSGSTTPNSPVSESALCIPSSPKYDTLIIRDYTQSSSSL
Readout Type: pKi
One number for each entry, as −log10 of the molar value.

Input: Query for Metabotropic glutamate receptor 5 (Rattus norvegicus, UniProt P31424): what pKi does the record show for CCc1cc2cc(C(=O)[C@H]3CC[C@@H](OC)CC3)ccc2nc1C ?
Output: 5.63
